// values below are reported log10 of TGI
test system: RXF 393 renal; assay: NCI tumour cell line growth inhibition, 48 h
Please keep in mind that the values are log10 of TGI expressed in µM.

Below, 3 compounds whose answers are already recorded.
INSERT INTO measurements (compound, data_value) VALUES
  ('COc1cc(C2CC(=O)c3c(C)nn(-c4nc5ccccc5[nH]4)c3C2)cc(OC)c1OC (configuration not stated)', 0.89),
  ('O=[N+]([O-])c1ccc(Oc2cccc(C(F)(F)F)c2)c([N+](=O)[O-])c1', 0.90),
  ('O=C(CCCCCNC1=CC(=O)c2ccccc2C1=O)NCCC[Te]c1ccccc1', 0.61);

Problem: Given the compound O=Cc1c[nH]c2ccc(-c3csc4ccccc34)cc12 , what is its reported log10 of TGI?
Result: 0.71

Problem: Given the compound CCOP(=O)(CCN1CCN(CCCCCOc2cc3c(cc2OC)C(=O)N2CCC[C@H]2C=N3)CC1)OCC , what is its reported log10 of TGI?
Result: 0.82

Problem: Given the compound Nc1ncnc2c1nc(N)n2C1OC(CO)C(O)C1O (configuration not stated) , what is its reported log10 of TGI?
Result: 0.53

Problem: Given the compound c1ccc(CNCCCNCCCCNCCCNCc2ccccc2)cc1 , what is its reported log10 of TGI?
Result: 1.41

Problem: Given the compound Cc1cc(N2CCN(C)CC2)nc(N(CCNc2ccnc3cc(Cl)ccc23)Cc2ccco2)n1 , what is its reported log10 of TGI?
Result: 0.69

Problem: Given the compound COc1ccccc1N(C(C)=O)C1=C(Cl)C(=O)c2ccccc2C1=O , what is its reported log10 of TGI?
Result: 0.39

* * *

system: TK-10 renal; assay: NCI tumour cell line growth inhibition, 48 h
Measurement label: TGI

Below, 10 compounds whose answers are already recorded.
INSERT INTO measurements (compound, data_value) VALUES
  ('Cc1ccc2c(n1)C(=O)C(Cl)=C(Nc1ccc(N3CCN(C)CC3)cc1)C2=O', '3.42 µM'),
  ('Oc1ccc(NCc2cc(O)ccc2O)cc1', '30.4 µM'),
  ('O=C1NC(=O)/C(=C/c2ccc(S(=O)(=O)N/N=C/c3ccccc3)cc2)N1', '> 100 µM'),
  ('O=C(O)CC1C(=O)OC2C3COC(=O)c4cc(O)c(O)c(O)c4-c4c(cc(O)c(O)c4O)C(=O)OC2C(OC(=O)c2cc(O)c(O)c4c2C1C(O)C(=O)O4)C(OC(=O)c1cc(O)c(O)c(O)c1)O3 (stereo not drawn)', '> 100 µM'),
  ('c1ccc2c(c1)ncn2CCn1ccnc1', '> 100 µM'),
  ('S=C1NCCN1C(=S)NC1CCCCC1', '93.1 µM'),
  ('O=C(Cc1nc2ccc(C(=O)c3ccccc3)cc2[nH]c1=O)C(=O)Nc1ccc(C(F)(F)F)cc1[N+](=O)[O-]', '> 100 µM'),
  ('CC(=O)OCC1=C2C(OC(=O)C(C)C)CC3(COC(C)=O)OC3/C=C\C3(C)OC3C2OC1=O (stereo not drawn)', '> 100 µM'),
  ('NS(=O)(=O)c1ccc(N=Nc2ccc(O)c(O)c2)cc1', '93 µM'),
  ('Cc1cc(NS(=O)(=O)c2ccc(NC(=O)COc3ccc(-c4cc5ccccc5[nH]4)cc3)cc2)no1', '5.45 µM');

Next compound, please.
Problem: Given the compound c1csc(-c2cscc2-c2cccs2)c1 , what is its reported TGI?
Result: > 100 µM

* * *

// values below are reported TGI
system: SNB-19 CNS; assay: NCI tumour cell line growth inhibition, 48 h

Below, 3 molecules whose answers are already recorded.
INSERT INTO assay_data (molecule, tested_system, measurement_label, data_value) VALUES
  ('CC1C(O)[C@@]2(OC[C@@]34C(=O)CC5(O)[C@H](CCC6Cc7nc8c(nc7C[C@]65C)CC5CC[C@@H]6C7=C[C@H]9O[C@@]%10(O[C@@](C)(CO)C[C@@H]%10O)C(C)[C@@]9(O)[C@]7(C)[C@@H](O)CC6[C@]5(C)C8)C3=CC[C@H]4C2C)OC1(C)C (stereo not given in full)', 'SNB-19 CNS', 'TGI', '0.206 µM'),
  ('CCCC(=O)n1[nH]c(=O)n(C(C)(C)C)c1=O', 'SNB-19 CNS', 'TGI', '> 100 µM'),
  ('COc1ccc2c(c1)CC[C@@H]1C2CC[C@]2(C)C(=O)N(CCN3CCCCC3)C(=O)CC12 (stereo not given in full)', 'SNB-19 CNS', 'TGI', '> 100 µM');

Problem: Given the molecule CC(=O)OCC1OC(N2C(=O)CC(N)=Nc3ccccc32)C(OC(C)=O)C(OC(C)=O)C1OC(C)=O (stereo not given) , what is its reported TGI?
Result: > 100 µM

Problem: Given the molecule CC(=O)O[C@@H]1[C@@H](C)[C@]2(CC(c3ccoc3)OC2O)C2CCC3O[C@]3(C)[C@]2(C)[C@@H]1OC(C)=O (stereo not given in full) , what is its reported TGI?
Result: > 100 µM

* * *

// values below are reported TGI
tested on: DMS 114 small cell lung; experiment: NCI tumour cell line growth inhibition, 48 h

Below, 3 compounds whose answers are already recorded.
INSERT INTO measurements (compound, data_value) VALUES
  ('C=CC(Br)(CBr)CCC(Br)C(C)(C)Br (configuration not stated)', '24.6 µM'),
  ('CC1C(O)[C@@]2(OC[C@@]34C(=O)CC5(O)[C@H](CCC6Cc7nc8c(nc7C[C@]65C)CC5CC[C@@H]6C7=C[C@H]9O[C@@]%10(O[C@@](C)(CO)C[C@@H]%10O)C(C)[C@@]9(O)[C@]7(C)[C@@H](O)CC6[C@]5(C)C8)C3=CC[C@H]4C2C)OC1(C)C (some centres not stated)', '0.0942 µM'),
  ('COC(=O)CSc1n[nH]c(-c2ccccc2)n1', '> 100 µM');

Problem: Notebook entry, DMS 114 small cell lung assay: TGI of COc1ccccc1NC(=O)CC(=O)n1nc(-c2ccccc2)c(N=Nc2ccccc2[N+](=O)[O-])c1-c1ccccc1 = ?
Result: > 100 µM

Problem: Notebook entry, DMS 114 small cell lung assay: TGI of CC1(Br)S(=O)(=O)OCCOS1(=O)=O = ?
Result: > 100 µM

Problem: Notebook entry, DMS 114 small cell lung assay: TGI of Cc1nn2c(=O)n(-c3cccc(-n4nnc5c(-c6ccccc6)c(C)nn5c4=O)c3C)nnc2c1-c1ccccc1 = ?
Result: 30.2 µM

Problem: Notebook entry, DMS 114 small cell lung assay: TGI of COC[C@@H]1Cc2cc(OC)c3c(c2[C@H](c2ccc(OC)c(OC)c2)[C@H]1COC)OCO3 = ?
Result: > 100 µM

Problem: Notebook entry, DMS 114 small cell lung assay: TGI of Cc1ccc(S(=O)(=O)Nc2cccc(C)c2C)cc1 = ?
Result: > 100 µM

* * *

test system: SF-539 CNS; assay: NCI tumour cell line growth inhibition, 48 h
*1 amine or outer side, *2 acyl side, *3 side chain or, on linkers, in order; H or OH if unused. Where a SMILES comes first, the peptide text is derived from it. Bridges are numbered along the chain shown (N, C = ends). Roman numbers before positions name the chains, in order. X23 = CCCCCCCCCCCCCCC(=O)NC(CCCCN[*:2])C(=O)CN1CCCC1C(=O)[*:1]
// values below are reported GI50

Below, 3 molecules whose answers are already recorded.
INSERT INTO measurements (molecule, data_value) VALUES
  ('C=C1C(=O)O[C@H]2[C@H]1CC/C(COC(=O)c1cccc3ccccc13)=C\CC[C@@]1(C)O[C@@H]21', '1.29 µM'),
  ('O=C(N/N=C/c1ccncc1)c1ccc(C(F)(F)F)nc1Nc1cccc(C(F)(F)F)c1', '2.6 µM'),
  ('CCCCCCCCCCCCCCC(=O)NC(CCCCNC(=O)C1CCCN1C(=O)C(CCCCN)NC(=O)C(CCCCN)NC(=O)C(CCCCN)NC(=O)C(CCCNC(=N)N)NC(=O)C(CCCCN)NC(=O)C(N)C(C)C)C(=O)CN1CCCC1C(=O)NCC(=O)NC(Cc1ccccc1)C(=O)N1CCCC1C(=O)NC(CO)C(=O)NC(Cc1ccc(O)cc1)C(=O)NC(CCCCN)C(=O)NC(CC(C)C)C(=O)NC(CCCNC(=N)N)C(=O)N1CCCC1C(=O)NCC(N)=O (stereo not given) (I: GFPSYKLRPG-NH2 / II: H-VKRKKKP; linker I:N-II:C via X23; configuration not given here)', '27.7 µM');

Problem: Given the molecule COc1ccc(C2=NNC(c3cc(Cc4ccc(O)c(C5CC(c6ccc(OC)cc6)=NN5)c4)ccc3O)C2)cc1 (stereo not given) , what is its reported GI50?
Result: 22.4 µM

Problem: Given the molecule CC(=O)Nc1cc(C(c2ccccc2)c2ccccc2)cc(C(c2ccccc2)c2ccccc2)c1C , what is its reported GI50?
Result: > 100 µM
